src = patent US10519162B2

- System: Male Wiga Wistar rats
- Method Summary: Reversal of LY-404039-induced decrease of palpebral opening in apomorphine-challenged rats (APO LY-404039)
- Assay type: in vivo, rat
- Assay Context: Rattus norvegicus, PO (oral route); apomorphine challenged rats
Listing of recorded ED50 by entry.

Cc1ccncc1C(=O)Nc1cnn2c1C(=O)N(c1ccc(C(F)(F)F)c(Cl)c1)C[C@@H]2C = > 0.63 mg/kg
COCC1CN(c2ccc(C(F)(F)F)cc2)C(=O)c2c(NC(=O)c3ccccc3F)cnn21 (single isomer, unassigned) [Co. No. 62a] = > 2.5 mg/kg
Cc1cc(C(=O)Nc2cnn3c2C(=O)N(c2ccc(Cl)c(Cl)c2)C[C@@H]3C)ccn1 = > 0.63 mg/kg
C[C@H]1CN(c2ccc(C(F)(F)F)c(F)c2)C(=O)c2c(NC(=O)c3cccnc3)cnn21 = > 0.63 mg/kg
COCC1CN(c2ccc(C(F)(F)F)cc2)C(=O)c2c(NC(=O)c3ccc(N)nc3)cnn21 (single isomer, unassigned) = > 2.5 mg/kg

## Task For the molecule shown here, Cc1cc(C(=O)Nc2cnn3c2C(=O)N(c2ccc(Cl)c(Cl)c2)C[C@@H]3C)cc(C)n1 , give the reported ED50.
## Result > 0.63 mg/kg

###

Listing of recorded IC50 by entry.
- Measurement Target: human mGlu2 receptor (Homo sapiens, UniProt Q14416)
- Construct: expressed in transfected cells; host or cells: CHO cells
- Sequence (Q14416 19-872): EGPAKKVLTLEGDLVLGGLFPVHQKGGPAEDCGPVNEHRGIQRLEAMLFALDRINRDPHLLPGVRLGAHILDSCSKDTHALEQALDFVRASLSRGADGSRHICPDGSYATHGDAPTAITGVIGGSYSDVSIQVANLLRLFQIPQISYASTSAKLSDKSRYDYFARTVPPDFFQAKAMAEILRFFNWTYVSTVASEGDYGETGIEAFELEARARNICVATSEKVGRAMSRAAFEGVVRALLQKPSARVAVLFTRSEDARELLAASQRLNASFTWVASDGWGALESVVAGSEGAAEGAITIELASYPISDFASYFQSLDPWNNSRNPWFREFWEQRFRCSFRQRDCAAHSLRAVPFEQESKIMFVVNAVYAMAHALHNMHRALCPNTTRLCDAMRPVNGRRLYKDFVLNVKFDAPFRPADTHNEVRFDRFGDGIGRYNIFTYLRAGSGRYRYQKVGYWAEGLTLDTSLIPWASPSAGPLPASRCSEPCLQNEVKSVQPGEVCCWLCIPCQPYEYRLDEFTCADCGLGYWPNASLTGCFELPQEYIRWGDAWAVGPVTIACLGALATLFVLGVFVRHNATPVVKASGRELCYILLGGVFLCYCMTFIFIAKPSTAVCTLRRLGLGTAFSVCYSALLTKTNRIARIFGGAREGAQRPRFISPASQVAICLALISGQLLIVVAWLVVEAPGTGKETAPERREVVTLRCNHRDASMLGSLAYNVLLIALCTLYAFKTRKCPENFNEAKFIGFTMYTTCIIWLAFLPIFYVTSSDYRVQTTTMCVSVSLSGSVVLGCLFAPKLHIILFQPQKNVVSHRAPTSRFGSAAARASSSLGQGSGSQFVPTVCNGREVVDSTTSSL
- Method Summary: [35S]GTPγS binding assay (mGluR2 negative allosteric modulation, glutamate ~EC80 60 μM)
- Format: biochemical
- Assay Context: membranes from CHO cells transfected with human mGlu2 receptor; glutamate ~EC80 (60 μM); pIC50 = −log IC50 (M); read-out: GTPγS-hmGluR2 anGT pIC50 (converted)
# number only, unit M dropped from output

Cc1cc(N2C[C@H](C)n3ncc(NC(=O)c4ccccn4)c3C2=O)ccc1C(F)(F)F = 2.34e-09
Cc1cc(N2C[C@H](C)n3ncc(NC(=O)c4cncc(F)c4)c3C2=O)ccc1C(F)(F)F = 2.69e-09

Query compound follows.
## Task For the compound shown here, Cc1ccc(C(=O)Nc2cnn3c2C(=O)N(c2ccc(C(F)(F)F)cc2)C[C@@H]3C)cn1 , give the reported IC50.
## Result 1.78e-08

###

- Measurement Target: human mGlu2 receptor (Homo sapiens)
- Construct: expressed in transfected cells; host or cells: CHO cells
- Method Summary: [35S]GTPγS binding assay (mGluR2 negative allosteric modulation, glutamate ~EC80 60 μM)
- Assay type: biochemical
- Assay Context: maximal % inhibition relative to the control glutamate response (EC80 glutamate); read-out: GTPγS-hmGluR2 anGT Emax
- Method: 1) [^35S]GTPγS Binding Assay [^35S]GTPγS Binding Assay Total reaction volume was 200 μl. […] Membrane-bound radioactivity was counted in a Topcount.
Property Name: Emax (%)
# number only, unit % dropped from output

C[C@H]1CN(c2ccc(S(F)(F)(F)(F)F)cc2)C(=O)c2c(NC(=O)c3cccnc3N)cnn21 = 108
COc1nc(N2C[C@H](C)n3ncc(NC(=O)c4ccc(N)nc4)c3C2=O)ccc1Cl = 111
C[C@H]1CN(c2ccc(C(F)(F)F)cc2)C(=O)c2c(NC(=O)c3ncccn3)cnn21 = 106
Cc1cncc(C(=O)Nc2cnn3c2C(=O)N(c2ccc(C(F)(F)F)c(Cl)c2)C[C@@H]3C)c1 = 107
C[C@H]1CN(c2ccc(C(F)(F)F)cc2)C(=O)c2c(NC(=O)c3cccnc3)cnn21 = 107

## Task For the molecule shown here, Cc1ccnc(N)c1C(=O)Nc1cnn2c1C(=O)N(c1ccc(C(F)(F)F)cc1)C[C@@H]2C (racemic) , give the reported Emax.
## Result 110

## Task For the molecule shown here, Cc1cc(C(=O)Nc2cnn3c2C(=O)N(c2ccc(C(F)(F)F)c(Cl)c2)C[C@@H]3C)c(C)cn1 , give the reported Emax.
## Result 112

## Task For the molecule shown here, C[C@H]1CN(c2ccc(C(F)(F)F)cc2)C(=O)c2c(NC(=O)c3ccnc(N)c3)cnn21 , give the reported Emax.
## Result 104

## Task For the molecule shown here, COc1cc(N2C[C@H](C)n3ncc(NC(=O)c4cc(C)nc(C)c4)c3C2=O)ccc1C(F)(F)F , give the reported Emax.
## Result 104

## Task For the molecule shown here, Cc1cncc(C(=O)Nc2cnn3c2C(=O)N(c2ccc(C(F)(F)F)c(C)c2)C[C@@H]3C)c1 , give the reported Emax.
## Result 107

## Task For the molecule shown here, C[C@H]1CN(c2ccc(C(F)(F)F)cc2)C(=O)c2c(NC(=O)Cc3ccccc3)cnn21 , give the reported Emax.
## Result 103

## Task For the molecule shown here, C[C@H]1CN(c2ccc(C(F)(F)F)c(F)c2)C(=O)c2c(NC(=O)c3cncc(F)c3)cnn21 , give the reported Emax.
## Result 109

## Task For the molecule shown here, C[C@H]1CN(c2ccc(Cl)c(Cl)c2)C(=O)c2c(NC(=O)c3cncc(F)c3)cnn21 , give the reported Emax.
## Result 105

## Task For the molecule shown here, COc1cccc(C(=O)Nc2cnn3c2C(=O)N(c2ccc(C(F)(F)F)cc2)C[C@@H]3C)c1 , give the reported Emax.
## Result 106

###

- Measurement Target: human mGlu2 receptor (Homo sapiens)
- Construct: expressed in transfected cells; host or cells: CHO cells
- Method Summary: [35S]GTPγS binding assay (mGluR2 negative allosteric modulation, glutamate ~EC80 60 μM)
- Assay type: biochemical
- Assay Context: membranes from CHO cells transfected with human mGlu2 receptor; glutamate ~EC80 (60 μM); pIC50 = −log IC50 (M); read-out: GTPγS-hmGluR2 anGT pIC50 (converted)
Listing of recorded IC50 by entry.
# number only, unit M dropped from output

These recorded examples may help you get a feel for the data.
COc1ccc(C(=O)Nc2cnn3c2C(=O)N(c2ccc(C(F)(F)F)cc2)C[C@@H]3C)cn1 = 1.1e-08
Cc1nc(C(=O)Nc2cnn3c2C(=O)N(c2ccc(C(F)(F)F)cc2)C[C@@H]3C)co1 = 1.02e-07
C[C@H]1CN(c2ccc(C(F)(F)F)cc2)C(=O)c2c(NC(=O)c3cccc(S(N)(=O)=O)c3)cnn21 = 1.66e-09
Cc1cncc(C(=O)Nc2cnn3c2C(=O)N(c2ccc(C(F)(F)F)c(F)c2)C[C@@H]3C)c1 = 6.92e-09
Cc1c(F)cncc1C(=O)Nc1cnn2c1C(=O)N(c1ccc(C(F)(F)F)cc1)C[C@@H]2C = 2.45e-08

## Task API: value(readout= IC50, system= human mGlu2 receptor (Homo sapiens), query= C[C@H]1CN(c2ccc(C(F)(F)F)cc2)C(=O)c2c(NC(=O)c3nccs3)cnn21 )
## Result 3.24e-09

## Task API: value(readout= IC50, system= human mGlu2 receptor (Homo sapiens), query= Cc1cc(C(=O)Nc2cnn3c2C(=O)N(c2ccc(C(F)(F)F)cc2)C[C@@H]3C)[nH]n1 )
## Result 2.45e-07

## Task API: value(readout= IC50, system= human mGlu2 receptor (Homo sapiens), query= C[C@H]1CN(c2ccccc2)C(=O)c2c(NC(=O)c3ccnc(N)c3)cnn21 )
## Result 3.16e-07

## Task API: value(readout= IC50, system= human mGlu2 receptor (Homo sapiens), query= Cc1ncc(C(=O)Nc2cnn3c2C(=O)N(c2ccc(C(F)(F)F)cc2)C[C@@H]3C)cn1 )
## Result 2.24e-07

## Task API: value(readout= IC50, system= human mGlu2 receptor (Homo sapiens), query= C[C@H]1CN(c2ccc(C(F)(F)F)cc2)C(=O)c2c(NC(=O)c3ccc(F)cc3)cnn21 )
## Result 1.32e-08

## Task API: value(readout= IC50, system= human mGlu2 receptor (Homo sapiens), query= Cc1cc(C(=O)Nc2cnn3c2C(=O)N(c2ccc(C(F)(F)F)c(C)c2)C[C@@H]3C)ccn1 )
## Result 4.68e-09

## Task API: value(readout= IC50, system= human mGlu2 receptor (Homo sapiens), query= C[C@H]1CN(c2ccc(C(F)(F)F)cc2)C(=O)c2c(NC(=O)c3ccno3)cnn21 )
## Result 2.95e-08

## Task API: value(readout= IC50, system= human mGlu2 receptor (Homo sapiens), query= COCc1cncc(C(=O)Nc2cnn3c2C(=O)N(c2ccc(C(F)(F)F)c(Cl)c2)C[C@@H]3C)c1 )
## Result 3.02e-09

## Task API: value(readout= IC50, system= human mGlu2 receptor (Homo sapiens), query= Cc1nccc(C(=O)Nc2cnn3c2C(=O)N(c2ccc(C(F)(F)F)c(Cl)c2)C[C@@H]3C)c1C )
## Result 5.5e-09

## Task API: value(readout= IC50, system= human mGlu2 receptor (Homo sapiens), query= Cc1cc(C(=O)Nc2cnn3c2C(=O)N(c2ccc(C(F)(F)F)c(Cl)c2)C[C@@H]3C)nc(N)n1 )
## Result 5.75e-09

## Task API: value(readout= IC50, system= human mGlu2 receptor (Homo sapiens), query= COc1nc(N2C[C@H](C)n3ncc(NC(=O)c4ccc(N)nc4)c3C2=O)ccc1Cl )
## Result 2.69e-08

## Task API: value(readout= IC50, system= human mGlu2 receptor (Homo sapiens), query= C[C@H]1CN(c2ccc(OC(F)(F)F)cc2)C(=O)c2c(NC(=O)c3cccnc3)cnn21 )
## Result 1.48e-08
